Target: LXRβ (Homo sapiens, UniProt P55055)
Construct: Co-transfection expression plasmids, comprising full-length LXRα (pCMX-h LXRα or LXRβ (pCMX-hLXRβ))
Experiment: LXR/LXRE co-transfection assay (luciferase reporter) in CV-1 cells, LXRβ
Settings: CV-1 cells transfected with pCMX-hLXRβ and LXREx1-Tk-Luciferase, 20 hours incubation, read-out: LXRbeta agonism EC50
readout_label: EC50 (nM)

molecule	unit_of_measurement	recorded_result
Cc1nc(-c2ccc(OC(F)F)nc2)c(-c2cc(-c3cccc(S(C)(=O)=O)c3)ccc2-n2cc(Cl)c(C(F)(F)F)n2)o1 [Example 425]	nM	24
COc1ncc(-c2nc(C)oc2-c2cc(-c3cccc(S(C)(=O)=O)c3)ccc2-n2cc(Cl)c(C(F)(F)F)n2)cn1 [Example 427]	nM	94
Cc1nc(-c2ccc3c(c2)OC(F)(F)O3)c(-c2cc(-c3cc(F)c(CO)c(S(C)(=O)=O)c3)ccc2-c2cc(C3(C#N)CC3)nn2C)o1 [Example 60]	nM	7

###

Target: LXRβ (Homo sapiens)
Construct: Co-transfection expression plasmids, comprising full-length LXRα (pCMX-h LXRα or LXRβ (pCMX-hLXRβ))
Test: LXR/LXRE co-transfection assay (luciferase reporter) in CV-1 cells, LXRβ
Settings: CV-1 cells transfected with pCMX-hLXRβ and LXREx1-Tk-Luciferase, 20 hours incubation, read-out: LXRbeta agonism EC50
pEC50: −log10 of the molar value.
Returns one of label 1 or label 0; label 1 when pEC50 is >= 7.

compound	assigned_class
Cn1nc(C(C)(F)F)cc1-c1ccc(-c2cc(F)c(CO)c(S(C)(=O)=O)c2)cc1-n1nncc1-c1ccc(OC(F)(F)F)cc1 [Example 21]	label 1
Cc1nc(-c2ccc3c(c2)OC(F)(F)O3)c(-c2cc(-c3cccc(S(C)(=O)=O)c3)ccc2-c2cc(C3(C#N)CC3)nn2C)o1 [Example 118]	label 1
Cc1nc(-c2ccc(OC(F)(F)F)cc2)c(-c2cc(-c3cccc(S(C)(=O)=O)c3)ccc2-n2ccc(C#N)n2)o1 [Example 318]	label 0
Cn1nc(C(F)(F)C(=O)NC(C)(C)CO)cc1-c1ccc(-c2cc(F)c(CO)c(S(C)(=O)=O)c2)cc1-n1nncc1-c1ccc(OC(F)(F)F)cc1 [Example 27]	label 0
Cn1nc(C(F)F)cc1-c1ccc(-c2cc(F)c(CO)c(S(C)(=O)=O)c2)cc1-n1nncc1-c1ccc(OC(F)(F)F)cc1 [Example 23]	label 1

###

Molecular target: LXRβ (Homo sapiens, UniProt P55055)
Construct: Co-transfection expression plasmids, comprising full-length LXRα (pCMX-h LXRα or LXRβ (pCMX-hLXRβ))
Sequence (P55055 1-460): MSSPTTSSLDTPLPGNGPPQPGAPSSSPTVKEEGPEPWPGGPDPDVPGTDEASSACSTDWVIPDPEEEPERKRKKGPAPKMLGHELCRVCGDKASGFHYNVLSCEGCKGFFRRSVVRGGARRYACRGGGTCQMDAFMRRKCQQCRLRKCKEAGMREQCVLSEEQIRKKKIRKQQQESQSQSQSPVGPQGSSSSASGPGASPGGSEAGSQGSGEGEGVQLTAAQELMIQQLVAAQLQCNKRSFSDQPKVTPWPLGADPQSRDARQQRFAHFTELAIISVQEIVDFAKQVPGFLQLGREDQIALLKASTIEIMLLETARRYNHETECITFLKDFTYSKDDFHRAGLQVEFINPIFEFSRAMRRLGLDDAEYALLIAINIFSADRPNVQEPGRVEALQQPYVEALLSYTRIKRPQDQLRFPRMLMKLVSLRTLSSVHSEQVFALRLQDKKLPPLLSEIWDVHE
Sequence (P19793 1-462 partner): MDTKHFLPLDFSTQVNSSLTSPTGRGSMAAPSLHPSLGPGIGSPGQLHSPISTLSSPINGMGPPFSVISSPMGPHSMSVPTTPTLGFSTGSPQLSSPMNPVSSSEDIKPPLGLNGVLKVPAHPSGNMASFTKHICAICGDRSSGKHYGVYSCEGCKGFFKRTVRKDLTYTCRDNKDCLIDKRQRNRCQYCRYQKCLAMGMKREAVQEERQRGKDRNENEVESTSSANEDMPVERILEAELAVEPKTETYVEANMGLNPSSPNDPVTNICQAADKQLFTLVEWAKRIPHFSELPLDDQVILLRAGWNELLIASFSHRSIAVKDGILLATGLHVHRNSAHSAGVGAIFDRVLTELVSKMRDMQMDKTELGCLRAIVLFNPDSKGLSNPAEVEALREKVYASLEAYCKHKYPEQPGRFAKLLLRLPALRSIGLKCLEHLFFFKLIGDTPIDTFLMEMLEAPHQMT
Assay: LXR/LXRE co-transfection assay (luciferase reporter) in CV-1 cells, LXRβ
Conditions: CV-1 cells transfected with pCMX-hLXRβ and LXREx1-Tk-Luciferase, 20 hours incubation, read-out: LXRbeta agonism EC50
pEC50: −log10 of the molar value.
Returns one of label 1 or label 0; label 1 when pEC50 is >= 7.

sample_smiles	assigned_class
Cc1nc(-c2ccc3c(c2)OC(F)(F)O3)c(-c2cc(-c3cccc(S(C)(=O)=O)c3)ccc2-c2cc(C(=O)NC(C)(C)C)nn2C)o1	label 0
Cc1nc(-c2ccc(OC(F)(F)F)cc2)c(-c2cc(-c3cccc(S(C)(=O)=O)c3)ccc2-c2cc(C(F)(F)F)nn2C)o1	label 1
Cc1nc(-c2ccc3c(c2)OC(F)(F)O3)c(-c2cc(-c3cc(F)cc(S(C)(=O)=O)c3)ccc2-c2cc(C(F)(F)C(N)=O)nn2C)o1	label 0

###

Molecular target: LXRβ (Homo sapiens)
Construct: Co-transfection expression plasmids, comprising full-length LXRα (pCMX-h LXRα or LXRβ (pCMX-hLXRβ)); expressed in transfected cells; host or cells: CV-1 African green monkey kidney cells, transient transfection with pCMX-hLXRβ
Assay: LXR/LXRE co-transfection assay (luciferase reporter) in CV-1 cells, LXRβ
Assay type: cell-based
Details: CV-1 cells, relative to maximum response of high control N-(3-((4-fluorophenyl)-(naphthalene-2-sulfonyl)amino)propyl)-2,2-dimethylpropionamide, read-out: LXRbeta % EFFICACY

sample_smiles	Emax, %
Cc1nc(-c2cc(-c3cc(F)c(CO)c(S(C)(=O)=O)c3)ccc2-n2ccc(C(F)(F)F)n2)c(-c2cc(F)c(OC(F)F)c(F)c2)o1	82
CS(=O)(=O)c1cccc(-c2ccc(-n3ccc(C(N)=O)n3)c(-c3oc(C4CC4)nc3-c3ccc(OC(F)(F)F)cc3)c2)c1	12
Cc1nc(-c2ccc(Cl)cc2)c(-c2cc(-c3cc(F)c(CO)c(S(C)(=O)=O)c3)ccc2-n2ccc(C(F)(F)F)n2)o1	75

###

Biological target: LXRβ (Homo sapiens, UniProt P55055)
Construct: Co-transfection expression plasmids, comprising full-length LXRα (pCMX-h LXRα or LXRβ (pCMX-hLXRβ)); expressed in transfected cells; host or cells: CV-1 African green monkey kidney cells, transient transfection with pCMX-hLXRβ
Sequence (P55055 1-460): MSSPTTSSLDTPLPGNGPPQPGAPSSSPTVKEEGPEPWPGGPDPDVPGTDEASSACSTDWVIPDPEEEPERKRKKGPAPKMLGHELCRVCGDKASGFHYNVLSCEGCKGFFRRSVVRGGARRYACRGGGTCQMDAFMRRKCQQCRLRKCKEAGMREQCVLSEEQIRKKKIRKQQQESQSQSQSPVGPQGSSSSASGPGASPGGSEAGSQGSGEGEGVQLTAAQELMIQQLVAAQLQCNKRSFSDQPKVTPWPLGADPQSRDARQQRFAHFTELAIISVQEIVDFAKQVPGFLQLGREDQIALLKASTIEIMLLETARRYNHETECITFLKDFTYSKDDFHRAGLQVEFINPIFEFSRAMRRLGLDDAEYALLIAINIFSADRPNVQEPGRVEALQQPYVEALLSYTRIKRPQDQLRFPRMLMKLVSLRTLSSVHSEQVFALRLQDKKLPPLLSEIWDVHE
Sequence (P19793 1-462 partner): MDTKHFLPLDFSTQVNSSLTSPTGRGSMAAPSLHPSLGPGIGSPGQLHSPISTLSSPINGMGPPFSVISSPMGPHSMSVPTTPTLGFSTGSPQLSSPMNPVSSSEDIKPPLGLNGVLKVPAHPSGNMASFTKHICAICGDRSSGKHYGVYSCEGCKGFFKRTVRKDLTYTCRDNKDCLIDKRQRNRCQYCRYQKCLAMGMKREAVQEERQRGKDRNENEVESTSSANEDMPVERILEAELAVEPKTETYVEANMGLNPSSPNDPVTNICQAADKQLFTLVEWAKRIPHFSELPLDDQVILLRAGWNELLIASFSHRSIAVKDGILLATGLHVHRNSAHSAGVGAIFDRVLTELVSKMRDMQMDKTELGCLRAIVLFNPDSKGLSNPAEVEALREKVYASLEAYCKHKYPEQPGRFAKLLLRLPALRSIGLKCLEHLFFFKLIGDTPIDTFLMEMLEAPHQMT
Test: LXR/LXRE co-transfection assay (luciferase reporter) in CV-1 cells, LXRβ
Format: cell-based
Details: CV-1 cells, relative to maximum response of high control N-(3-((4-fluorophenyl)-(naphthalene-2-sulfonyl)amino)propyl)-2,2-dimethylpropionamide, read-out: LXRbeta % EFFICACY
Reported Emax values are given for each entry in this list.

sample_smiles	measured_target	Emax / %
CC(C)c1nc(-c2ccc(OC(F)(F)F)cc2)c(-c2cc(-c3cccc(S(C)(=O)=O)c3)ccc2-n2ccc(C(F)(F)F)n2)o1	LXRβ (Homo sapiens, UniProt P55055)	72
Cc1nc(-c2ccc3c(c2)OC(F)(F)O3)c(-c2cc(-c3cc(F)c(CO)c(S(C)(=O)=O)c3)ccc2-c2cc(-c3cnco3)nn2C)o1	LXRβ (Homo sapiens, UniProt P55055)	18
Cc1nc(-c2ccc(OC(F)(F)F)cc2)c(-c2cc(-c3cccc(S(C)(=O)=O)c3)ccc2-n2ccc(C#N)n2)o1	LXRβ (Homo sapiens, UniProt P55055)	84
Cc1nc(-c2ccc3c(c2)OC(F)(F)O3)c(-c2cc(-c3cccc(S(C)(=O)=O)c3)ccc2-c2cc(CC(N)=O)nn2C)o1	LXRβ (Homo sapiens, UniProt P55055)	60
Cc1nc(-c2ccc(OC(F)(F)F)cc2)c(-c2cc(-c3cccc(S(C)(=O)=O)c3)ccc2-n2ccc(C(N)=O)n2)o1	LXRβ (Homo sapiens, UniProt P55055)	29
Cc1cc(C(F)(F)F)n(-c2ccc(-c3cc(F)c(CO)c(S(C)(=O)=O)c3)cc2-c2nc(C)oc2-c2ccc(OC(F)F)cc2)n1	LXRβ (Homo sapiens, UniProt P55055)	56

Values from patent US9751869B2
